Exercise: for every item that follows, state its recorded %Inh.
Tested on: PLK4
Cond: concentration: 1 μM, replicates: in singlicate; n = 1;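 further: KINOMEscan kinase panel screen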
Give bare numbers, in %.

See these solved cases before continuing.
• O=C(Nc1cccc(Oc2ccc3nc(NC(=O)C4CC4)cn3n2)c1)c1ccccc1C(F)(F)F = 0
• COc1cc2c(cc1OCCN1CCNCC1)ncc1c3ccc(C#N)cc3[nH]c21 = 32
• c1ccc(Oc2ccc(Nc3ccnc4cc(-c5ccc(CNCCN6CCOCC6)o5)ccc34)cc2)nc1 = 43
• O=c1[nH]cc(-c2ccc(N3CCOCC3)cc2)c2sc(-c3cn[nH]c3)cc12 = 17

Please state, for each entry, its recorded %Inh.
1. Oc1cc(Nc2ccnc3cc(I)ccc23)ccc1F
2. Cc1ccc(S(=O)(=O)Nc2ccc(Nc3nccc(Nc4cccc5[nH]ncc45)n3)cc2)cc1
3. COC(=O)Nc1nc2ccc(Oc3ccc(NC(=O)Nc4cc(C(F)(F)F)ccc4F)cc3)cc2n1C.Cl
4. COc1cc(Nc2nccc(-c3c(-c4cccc(NC(=O)c5c(F)cccc5F)c4)nn4ncccc34)n2)cc(OC)c1OC

Result:
0
1
0
44

Okay, here is my list. What is %Inh for each of these?
1. COCCOCCOc1cc2ncc3c4ccc(C#N)cc4[nH]c3c2cc1OC
2. Cc1ccc(F)c(C(=O)Nc2cccc(-c3nn4ccccc4c3-c3ccnc(Nc4cccc(F)c4)n3)c2)c1F
3. COc1cc(Nc2nccc(N3CCC(NC(=O)c4cc5ccccc5s4)C3)n2)cc(OC)c1OC (centres unmarked)

Result:
13
10
0

###

Exercise: for every item that follows, state its recorded %Inh.
Tested on: FAK
Construct: gene PTK2
Cond: concentration: 1 μM, replicates: in singlicate; n = 1
Give bare numbers, in %.

- COC(=O)Nc1nc2cc(Oc3ccc(NC(=O)Nc4cc(C(F)(F)F)ccc4F)cn3)ccc2[nH]1.Cl.Cl: 0
- O=C(Nc1cccc(-c2nn3ncccc3c2-c2ccnc(Nc3ccccc3)n2)c1)c1c(F)cccc1F: 0
- Cn1cc(-c2[nH]c3cc(NC(=O)[C@H](N)C4CCCCC4)cc4c3c2C=NNC4=O)cn1: 5
- Clc1ccc(-c2nn3ncccc3c2-c2ccnc(Nc3ccc4c(c3)OCCO4)n2)cc1: 0

For each listed entry, give its %Inh.
1. O=C(NC1CCN(c2ccnc(Nc3ccc(F)cc3)n2)C1)c1cc2ccccc2s1 (stereo not shown)
2. Cl.NC(=O)c1cccc(Nc2nccc(Nc3ccc(Oc4c(Cl)cccc4Cl)c(Cl)c3)n2)c1

Result:
1. 0
2. 0

Provide reported %Inh for each item, in the same order as listed.
1. c1ccc(-c2cnc3nccnn23)cc1
2. Nc1ncc(-c2cccnc2)c2scc(-c3ccc4c(c3)CCN4C(=O)Cc3ccccc3)c12
3. Cc1cccc(NC(=O)Nc2ccc(Oc3ncnc4ccn(C)c34)cc2)c1
4. CNC(=O)c1ccccc1Nc1nc(Nc2ccc(N3CCOCC3)cc2)ncc1Cl.Cl

Result:
0
0
5
100

###

System: PDGFRA
Cond: concentration: 1 μM, replicates: in singlicate; n = 1
Result Type: %Inh (%)
One number for each entry, in %.

- Cc1ccc(C)c(NC(=O)NC2CCN(c3ccnc(Nc4ccc(F)cc4)n3)C2)c1 (centres unmarked): 0

Provide the reported %Inh of each entry below, same order.
1. Cl.Cl.NCC(NCc1ccc(-c2ccnc3[nH]ccc23)s1)c1ccccc1 (centres unmarked)
2. O=C(Nc1ccccc1F)NC1CCN(c2ccnc(Nc3ccc(F)cc3)n2)CC1

Result:
1: 5; 2: 0

Look at each compound and report its %Inh.
1. Nc1n[nH]c2cnc(-c3ccccc3)cc12
2. FC(F)(F)c1ccc(/C=C/c2cncnc2Nc2ccc3[nH]c(Cc4ccccc4)nc3c2)cc1
3. CCc1ccc(-c2ccc3c(c2)-c2c(cnn2C)S(=O)(=O)N3C)cc1
4. Oc1cc(Nc2ccnc3cc(I)ccc23)ccc1F

Result:
1. 0
2. 0
3. 0
4. 19

List the reported %Inh of each compound below.
1. COc1cc(Nc2nccc(-c3c(-c4cccc(NC(=O)c5c(F)cccc5F)c4)nn4ncccc34)n2)cc(OC)c1OC
2. O=C(Nc1cccc(-c2nn3ncccc3c2-c2ccnc(Nc3ccccc3)n2)c1)c1c(F)cccc1F
3. Cn1cc(-c2ccc3c(c2)CCN3C(=O)Cc2cccc(Cl)c2)c2c(N)ncnc21
4. COc1ccc(Nc2nccc(N3CCC(NC(=O)Nc4cccc(OC)c4)C3)n2)cc1 (centres unmarked)
5. O=C(O)C(F)(F)F.O=C(O)C(F)(F)F.O=c1[nH]ccc2nc(N[C@@H]3CCCNC3)nc(Nc3ccc(S(=O)(=O)N4CCOCC4)cc3)c12
6. Cl.Cl.NCC(NC(=O)c1cc(-c2ccccc2)c(-c2ccnc3[nH]ccc23)s1)c1ccccc1 (centres unmarked)
7. CC(=O)N1CCN(c2ccc(Nc3nccc(-c4sc(C(C)C)nc4-c4cccc(NS(=O)(=O)c5cccc(Cl)c5)c4)n3)cn2)CC1

Result:
[90.2, 65, 84, 0, 97.5, 0, 73]

Could I get %Inh for every one of these entries?
1. COc1cccc(C(=O)Nc2cccc(Oc3ccc4nc(NC(=O)C5CC5)cn4n3)c2)c1
2. COc1ccc(Nc2nccc(NCCNC(=O)c3cc4ccccc4s3)n2)cc1
3. Cc1ccc(S(=O)(=O)Nc2ccc(Nc3nccc(Nc4cccc5[nH]ncc45)n3)cc2)cc1
4. CC(=O)Nc1nc2cnc(Nc3cc(NC(=O)c4cccc(C5(C#N)CC5)c4Cl)ccc3C)nc2s1
5. COc1cc(Nc2nccc(-c3c(-c4cccc(NC(=O)c5c(F)cccc5F)c4)nn4ccccc34)n2)cc(OC)c1OC
6. COc1cc(Nc2ncc3c(C)nc(-c4cc5ccccc5[nH]4)n3n2)cc(OC)c1OC
7. Cl.c1ccc(-c2ccc3c(Nc4ccc5[nH]ccc5c4)ccnc3c2)nc1
8. COC(=O)Nc1nc2ccc(Oc3ccc(NC(=O)Nc4cc(C(F)(F)F)ccc4F)cc3)cc2n1C.Cl

Result:
1. 99.9
2. 0
3. 0
4. 97.7
5. 89
6. 0
7. 99.2
8. 78

Ask: I am curious: what %Inh value has been reported for O=C(NC1CCN(c2ccnc(Nc3ccc(F)cc3)n2)C1)c1cc2ccccc2s1 (centres unmarked) ?
Result: 0

Reference source: paper PMC5540273
